- assay-details: Absorption experiment with everted gut sacs
- details: Sprague-Dawley, rat
Quick rule: Papp at 180 min, 10 mg/mL of at least 100 ×10⁻⁶ cm/s means Met, below that means Not met.

Here are 5 compounds together with their reported answers.
>>> discrete_label("O=c1cc(-c2ccc(O)cc2)oc2c([C@@H]3O[C@H](CO)[C@@H](O)[C@H](O)[C@H]3O)c(O)cc(O)c12 [vitexin]")
"Not met"
>>> discrete_label("O=c1cc(-c2ccc(O)c(O)c2)oc2c([C@@H]3O[C@H](CO)[C@@H](O)[C@H](O)[C@H]3O)c(O)cc(O)c12 [orientin]")
"Not met"
>>> discrete_label("O=c1cc(-c2ccc(O)c(O)c2)oc2c(C3OC(CO)C(O)C(O)C3OC3OC(CO)C(O)C(O)C3O)c(O)cc(O)c12 [2″-O-β-L-galactopyranosylorientin]")
"Not met"
>>> discrete_label("COc1ccc(C(=O)O)cc1OC [veratric acid]")
"Met"
>>> discrete_label("O=C1CC[C@H]2c3cc(O)c(O)cc3CCN12 [trolline]")
"Met"

Below: the item to evaluate.
Enquiry: Check if Papp at 180 min, 10 mg/mL >= 100 ×10⁻⁶ cm/s (inclusive). Item: COc1cc(C(=O)O)cc(CC=C(C)C)c1O [proglobeflowery acid]
Return: Met
